Tested on: MOLM-13
Method: cells
Particulars: Homo sapiens, MOLM-13, 24 h
compounds and their reported pIC50
In textbook form, pIC50 equals minus log to base ten of the concentration in mol/L.

Examples from the recorded data:
NC(=O)c1cc2ncnc(N3[C@@H]4CC[C@H]3CN(C(=O)Nc3ccc(Cl)c(Cl)c3)C4)c2s1 5.63
NC(=O)c1cc2ncnc(N3[C@@H]4C[C@H]3CN(C(=O)Nc3cc(C(F)(F)F)cc(C(F)(F)F)c3)C4)c2s1 4.38
NC(=O)c1cc2ncnc(N3[C@@H]4CC[C@H]3CN(C(=O)Nc3ccc5ccccc5c3)C4)c2s1 4.98
NC(=O)c1cc2ncnc(N3CCN(C(=O)Nc4cc(Cl)cc(Cl)c4)CC3)c2s1 5.46
C#Cc1cccc(NC(=O)N2C[C@H]3C[C@@H](C2)N3c2ncnc3cc(C(N)=O)sc23)c1 4.48
NC(=O)c1cc2ncnc(N3CCN(C(=O)Nc4ccccc4F)CC3)c2s1 4.40

Exercise: Quick one: give measured pIC50 for Cc1ccc(NC(=O)N2C[C@H]3CC[C@@H](C2)N3c2ncnc3cc(C(N)=O)sc23)cc1
Solution: 5.33

Exercise: Retrieve pIC50 measured for NC(=O)c1cc2ncnc(N3[C@@H]4C[C@H]3CN(C(=O)Nc3cccc(Cl)c3)C4)c2s1 and print it.
Solution: 4.44

Exercise: State, in one line, measured pIC50 of NC(=O)c1cc2ncnc(N3[C@@H]4C[C@H]3CN(C(=O)Nc3ccc(C(F)(F)F)cc3)C4)c2s1
Solution: 4.42

Exercise: Give a short answer stating reported pIC50 for NC(=O)c1cc2ncnc(N3CCN(C(=O)Nc4ccc(Cl)cc4)CC3)c2s1 .
Solution: 5.37

Exercise: Query pIC50 for c1cncc(-c2cnn[nH]2)c1
Solution: 4.90

Exercise: Name the recorded pIC50 of the compound listed here: NC(=O)c1cc2ncnc(N3CCN(C(=O)Nc4ccc(F)cc4F)CC3)c2s1
Solution: 4.48

Exercise: Hello, please tell me recorded pIC50 for this one: NC(=O)c1cc2ncnc(N3CCN(C(=O)NC4CCCCC4)CC3)c2s1
Solution: 4.75

Exercise: Complete the entry with pIC50 for Cc1ccc(NC(=O)N2CCN(c3ncnc4cc(C(N)=O)sc34)CC2)cc1
Solution: 5.20

Exercise: Determine from records and report pIC50 for NC(=O)c1cc2ncnc(N3[C@@H]4C[C@H]3CN(C(=O)Nc3ccc(Cl)c(Cl)c3)C4)c2s1
Solution: 4.60

----------
Tested on: MOLM-13
Method: cells
Particulars: Homo sapiens, MOLM-13, 24 h
pIC50: −log10 of the molar value.
Measured endpoint: pIC50

See these solved cases before continuing.
NC(=O)c1cc2ncnc(N3[C@@H]4C[C@H]3CN(C(=O)Nc3ccccc3Cl)C4)c2s1 < 4.30
Cc1ccc(NC(=O)N2C[C@H]3C[C@@H](C2)N3c2ncnc3cc(C(N)=O)sc23)cc1 < 4.30

Exercise: Give pIC50 for the following compound: NC(=O)c1cc2ncnc(N3[C@@H]4C[C@H]3CN(C(=O)Nc3ccc(F)cc3F)C4)c2s1
Solution: < 4.30
